Target: ovine COX-1 (Ovis aries, UniProt P05979)
Sequence (P05979 25-600): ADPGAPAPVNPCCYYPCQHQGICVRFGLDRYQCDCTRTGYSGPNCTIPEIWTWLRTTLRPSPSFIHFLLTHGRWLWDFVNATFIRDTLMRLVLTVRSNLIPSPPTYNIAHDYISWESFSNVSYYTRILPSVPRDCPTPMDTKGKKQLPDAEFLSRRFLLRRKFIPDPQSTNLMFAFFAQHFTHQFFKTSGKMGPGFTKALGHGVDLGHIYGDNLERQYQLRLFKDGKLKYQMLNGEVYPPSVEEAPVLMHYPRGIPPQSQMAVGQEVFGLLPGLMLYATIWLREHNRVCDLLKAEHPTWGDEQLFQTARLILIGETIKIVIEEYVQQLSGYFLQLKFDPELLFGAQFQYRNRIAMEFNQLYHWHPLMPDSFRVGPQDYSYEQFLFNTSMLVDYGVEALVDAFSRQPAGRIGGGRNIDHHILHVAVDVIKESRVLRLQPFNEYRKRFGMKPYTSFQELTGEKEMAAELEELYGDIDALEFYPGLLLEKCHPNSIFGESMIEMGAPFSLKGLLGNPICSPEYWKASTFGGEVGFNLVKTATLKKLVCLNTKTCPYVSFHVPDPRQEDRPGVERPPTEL
Experiment: TLC assay, inhibition of purified ovine COX-1
Conditions: read-out: IC50 (μM) COX-1; Table 1 ester derivatives; ovine COX-1 (44 nM), 20 min at rt, then 14C-AA (50 μM) 37° C. 30 sec
# IC50 annotations
value-type: IC50 (µM)

{"compound": "COC(=O)Cc1c(C)n(C(=O)c2ccc(Cl)cc2)c2ccc(OC)cc12", "system": "ovine COX-1 (Ovis aries, UniProt P05979)", "value-operator": "=", "recorded-measurement": 33}
{"compound": "Cc1nc(-c2ccccc2)c(-c2ccc(S(N)(=O)=O)cc2)o1 [reference compound]", "system": "ovine COX-1 (Ovis aries, UniProt P05979)", "value-operator": ">", "recorded-measurement": 66}

----------
The compounds listed here are annotated with their IC50.
target: ovine COX-1 (Ovis aries, UniProt P05979); assay: TLC assay, inhibition of purified ovine COX-1; settings: read-out: IC50 (μM) COX-1; Table 2 amide derivatives; ovine COX-1 (44 nM), 20 min, then 1-14C-AA (50 μM) 37° C. 30 sec

{"compound": "COc1ccc2c(c1)c(CC(=O)Nc1nc(C)cs1)c(C)n2C(=O)c1ccc(Cl)cc1 [Compound 57]", "IC50": "> 66 µM"}
{"compound": "COc1ccc2c(c1)c(CC(=O)Nc1cc(OC)c(OC)c(OC)c1)c(C)n2C(=O)c1ccc(Cl)cc1 [Compound 46]", "IC50": "> 66 µM"}
{"compound": "COc1ccc2c(c1)c(CC(=O)Nc1ccc(Cl)nc1)c(C)n2C(=O)c1ccc(Cl)cc1 [Compound 48]", "IC50": "> 66 µM"}

----------
Measured pIC50, listed per entry.
target: ovine COX-1 (Ovis aries); assay: TLC assay, inhibition of purified ovine COX-1
pIC50: −log10 of the molar value.
value-type: pIC50

{"molecule": "CCC#CCC(C)OC(=O)Cc1c(C)n(C(=O)c2ccc(Cl)cc2)c2ccc(OC)cc12 (centres unmarked) [Compound 15, Indomethacin 2-(hept-4-ynyl) ester]", "recorded-measurement": "< 4.18"}
{"molecule": "COc1ccc2c(c1)c(CC(=O)OC(C)C)c(C)n2C(=O)c1ccc(Cl)cc1 [Compound 5, Indomethacin isopropyl ester]", "recorded-measurement": 4.43}
{"molecule": "COC(=O)Cc1c(C)n(C(=O)c2ccc(Cl)cc2)c2ccc(OC)cc12 [Compound 2, Indomethacin methyl ester]", "recorded-measurement": "~4.48"}
{"molecule": "Cc1nc(-c2ccccc2)c(-c2ccc(S(N)(=O)=O)cc2)o1 [reference compound]", "recorded-measurement": "< 4.18"}
{"molecule": "CCCCC#CCOC(=O)Cc1c(C)n(C(=O)c2ccc(Cl)cc2)c2ccc(OC)cc12 [Compound 14, Indomethacin hept-2-ynyl ester]", "recorded-measurement": "< 4.18"}
{"molecule": "COc1ccc2c(c1)c(CC(=O)Oc1ccc3ccccc3c1)c(C)n2C(=O)c1ccc(Cl)cc1 [Compound 25, Indomethacin β-naphthyl ester]", "recorded-measurement": "< 4.18"}
{"molecule": "CCCCCCCOC(=O)Cc1c(C)n(C(=O)c2ccc(Cl)cc2)c2ccc(OC)cc12 [Compound 11, Indomethacin heptyl ester]", "recorded-measurement": "< 4.18"}
{"molecule": "CCCCCCCCOC(=O)Cc1c(C)n(C(=O)c2ccc(Cl)cc2)c2ccc(OC)cc12 [Compound 16, Indomethacin octyl ester]", "recorded-measurement": "< 4.18"}
